System: Escherichia coli TOP10;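 note: peptides expressed intracellularly from a pBAD plasmid library in pooled LB shake-flask culture, induced with 0.3% L-arabinose, DNA abundance read by NGS, three biological replicates, DESeq2 with apeglm shrinkage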
EXPERIMENT NOTES: shrunken log2 fold change of peptide-encoding DNA abundance (4.5 h post-induction vs induction); higher = less antimicrobial activity (less host growth inhibition)
ASSAY CONDITIONS: time post-induction: 4.5 h; library: site-saturation at positions 5, 18, 19, 20
Parameter: shrunken log2 fold change. Scope: all listed entries.
READOUT NAME: shrunken log2 fold change

1. RRIRIRPPRLPRPRPRPPARPRP = 0.393
2. RRIRIRPPRLPRPRPRPWLPPRP = -0.325
3. RRIRPRPPRLPRPRPRPSIIPRP = -0.634
4. RRIRYRPPRLPRPRPRPLEQPRP = -0.121
5. RRIRARPPRLPRPRPRPFAVPRP = 0.129
6. RRIRHRPPRLPRPRPRPDDYPRP = -0.00759
7. RRIRFRPPRLPRPRPRPIITPRP = -0.5
8. RRIRERPPRLPRPRPRPIHDPRP = 0.0116
9. RRIRKRPPRLPRPRPRPFMQPRP = -0.0285
10. RRIRKRPPRLPRPRPRPFLYPRP = -0.436
11. RRIRPRPPRLPRPRPRPPHDPRP = 0.572
12. RRIRARPPRLPRPRPRPRPCPRP = 0.426
13. RRIRQRPPRLPRPRPRPHPEPRP = 0.0615
14. RRIRVRPPRLPRPRPRPICSPRP = -0.154
15. RRIRVRPPRLPRPRPRPNKAPRP = 0.13
